Assay: Log P (n-octanol/water) of perfuming compounds (Tables 4 to 10)
Conditions: Table 8, perfuming compounds having a sweet note
Quick rule for you: Log P (n-octanol/water) at 2 or higher means t, lower means f.

Hello, I need to know if CC(C)CC(=O)OCc1ccccc1 [BENZYL 3-METHYLBUTANOATE] has measured Log P (n-octanol/water) not below 2. Thanks!
t

###

Assay: Volatility of perfuming compounds (Tables 4 to 10), with top/middle/bottom note type
Format: physicochemical
Settings: Table 10, perfuming compounds having a woody note; note type by volatility
OBSERVED_PROPERTY: Type

Reference set, count: 4
| MOLECULE | Type |
| --- | --- |
| N#C/C=C/c1ccccc1 [(E)-3-PHENYL-2-PROPENENITRILE] | Middle |
| CO[C@]1(C)CC[C@@]23C[C@@H]1C(C)(C)[C@@H]2CC[C@H]3C (racemic) [(+−)-8-methoxycedrane] | Bottom |
| CC(=O)O[C@@H]1CC[C@@H]2C(C)(C)CCC[C@@]2(C)C1 (racemic) | Bottom |
| CC1(C)CCC[C@]2(C)[C@H]3CCO[C@]3(C)CC[C@@H]12 | Bottom |

Give reported Type value for CC1=CCC(/C=C/C(C)C(C)O)C1(C)C (stereo not shown)
Bottom

Let me know recorded Type for `CCC(=O)O[C@H]1C[C@@H]2CC[C@@]1(C)C2(C)C` , thanks.
Top

Note Type for the molecule shown: CC(=O)O[C@@H]1C(C)(C)CCC[C@]12CC=C(C)C[C@H]2C (racemic)
Bottom

Respond only with Type recorded for O=C/C=C/c1ccccc1 [(E)-3-PHENYL-2-PROPENAL]
Middle

Give the measured Type for `C[C@H]1[C@@H]2C[C@H](C[C@@]13C=CC(=O)CC3)C2(C)C`
Bottom

Annotate the molecule CCC(C)C1(C)COC(C2CCC(C)=CC2C)OC1 (stereo not shown) with its measured Type.
Bottom

Input CCOCOC1CCCCCCCCCCC1 [(ETHOXYMETHOXY)CYCLODODECANE] , output reported Type.
Bottom

For the molecule CCC(=CCC1CC=C(C)C1(C)C)CO (racemic) , give its measured Type value.
Bottom

Find the measured Type of CC1=CCC(C(C)(C)O)CC1 (racemic) [(+−)-ALPHA-TERPINEOL] and report it.
Top

Tell me measured Type for CC1=CCC(CCC(C)C(C)O)C1(C)C (racemic) please.
Bottom

Output Type of `COc1ccc(OC)c(C(C)(C)C)c1`
Middle

Give the measured Type for C/C=C/C(=O)C1C(C)=CCCC1(C)C (racemic)
Top

Recall and state the measured Type for `C[C@@H]1CC[C@H]2C(C)(C)[C@H]3C[C@@]12C[C@@H]1OC(C)(C)O[C@@]13C` .
Bottom

Input `CCCCC[C@@H]1C(=O)CC[C@@H]1CC(=O)OC` , output reported Type.
Bottom

Write down Type measured for item C=C1C2CCC(C)(OCC)C1CCC2(C)C (racemic)
Top
